Reference for the values: ChEMBL document CHEMBL1961873

Measured on: Tyrosine-protein kinase JAK1 (Homo sapiens) (UniProt P23458)
Sequence (P23458 whole entry): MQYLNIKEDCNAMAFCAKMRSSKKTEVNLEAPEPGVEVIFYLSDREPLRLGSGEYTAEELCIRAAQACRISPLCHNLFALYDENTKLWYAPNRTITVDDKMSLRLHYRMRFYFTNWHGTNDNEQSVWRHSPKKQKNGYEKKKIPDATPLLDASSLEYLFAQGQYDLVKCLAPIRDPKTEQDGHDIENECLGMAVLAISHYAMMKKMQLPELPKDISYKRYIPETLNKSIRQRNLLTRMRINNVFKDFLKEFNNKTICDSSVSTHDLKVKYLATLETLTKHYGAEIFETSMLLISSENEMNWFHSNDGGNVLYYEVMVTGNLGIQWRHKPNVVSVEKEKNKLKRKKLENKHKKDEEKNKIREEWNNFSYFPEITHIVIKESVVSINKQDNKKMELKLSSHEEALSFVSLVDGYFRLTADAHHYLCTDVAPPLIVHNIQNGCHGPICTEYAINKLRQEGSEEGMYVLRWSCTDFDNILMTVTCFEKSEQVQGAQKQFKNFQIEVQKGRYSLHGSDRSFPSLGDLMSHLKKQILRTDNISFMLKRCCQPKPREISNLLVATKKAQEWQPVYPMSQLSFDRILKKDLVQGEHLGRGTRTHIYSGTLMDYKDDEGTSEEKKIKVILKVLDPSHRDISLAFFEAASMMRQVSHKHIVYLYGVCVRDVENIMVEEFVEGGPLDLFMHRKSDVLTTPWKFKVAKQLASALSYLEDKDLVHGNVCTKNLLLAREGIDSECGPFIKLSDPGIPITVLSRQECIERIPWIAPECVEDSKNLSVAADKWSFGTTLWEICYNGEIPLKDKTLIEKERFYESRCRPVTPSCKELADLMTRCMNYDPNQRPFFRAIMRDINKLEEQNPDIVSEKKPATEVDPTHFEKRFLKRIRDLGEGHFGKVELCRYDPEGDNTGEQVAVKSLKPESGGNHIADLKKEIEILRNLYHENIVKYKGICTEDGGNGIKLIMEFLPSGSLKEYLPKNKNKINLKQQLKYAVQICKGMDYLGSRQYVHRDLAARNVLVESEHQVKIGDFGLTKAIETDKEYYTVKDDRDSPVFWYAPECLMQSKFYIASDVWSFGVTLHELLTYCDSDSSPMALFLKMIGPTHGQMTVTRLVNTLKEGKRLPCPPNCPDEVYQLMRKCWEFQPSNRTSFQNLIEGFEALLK
Experimental conditions: at 0.1 µM
Description: GSK_PKIS: JAK1 mean inhibition at 0.1 uM [Nanosyn]
Listed here are compounds together with their documented inhibition.
All answers are understood in %, so give the number only.

Consider the following illustrative entries.
COc1cc(N2CCN(C(C)C)CC2)ccc1Nc1nc(Nc2ccc(F)cc2C(=O)NC[C@@H](O)CO)c2cc[nH]c2n1	3.78
CCN(CC)Cc1ccc(Nc2nccc(-c3cnn4ncccc34)n2)cc1	4.71

Record C[C@@H](Oc1cc(-n2cnc3ccc(OCC4CCN(C)CC4)cc32)sc1C(N)=O)c1ccccc1Cl , field inhibition: 8.98

* * *

Measured on: Serine/threonine-protein kinase 10 (Homo sapiens)
Experimental conditions: at 1 µM
Recorded metric: inhibition (%)
Express it in %; write the number only.

Memo: CCN(CC)Cc1ccc(Nc2nccc(-c3cnn4ncccc34)n2)cc1 , reported inhibition: 18

Given item COc1ccc(-c2ccc3c(NC(=O)C4CC4)n[nH]c3n2)cc1 , the value recorded as its inhibition is 8.53

For this compound ( C/C(Nc1ccc(S(N)(=O)=O)cc1)=C1/C(=O)Nc2ccccc21 ), measured inhibition is 9.28

Value of measured inhibition for the entry NC(=O)Cc1ccccc1Oc1nccc(-c2c(-c3ccc(F)cc3)ncn2C2CCNCC2)n1 : 5.45

The measured inhibition associated with c1ccc(-c2n[nH]cc2-c2ccnc(-c3ccc(OCCN4CCOCC4)cc3)c2)nc1 reads 6.24

Lab book: inhibition of CN(C)c1ccc2c(c1)/C(=C/Nc1ccc(S(N)(=O)=O)cc1)C(=O)N2 noted as 18.1

The recorded inhibition for entry COc1cc(Nc2ncc(-c3ccccc3)o2)cc(OC)c1OC equals 11.1

Just so you know, measured inhibition for Fc1ccc(-c2ncn(C3CCNCC3)c2-c2ccnc(Oc3ccc(F)c(F)c3)n2)cc1 came out at 8.33

get_value(item= Fc1ccc(-c2ncn(C3CCNCC3)c2-c2ccnc(Oc3ccc(Oc4ccccc4)cc3)n2)cc1 , readout=inhibition) returns 6.96

Consider COC(=O)Nc1nc2ccc(Sc3ccc(NC(=O)Nc4cc(C(F)(F)F)ccc4F)cc3)cc2[nH]1 . Its measured inhibition is 72.7
